quantityKind: melting point

Use the examples below as a reference point.
>  <compound>
CC(C)[C@H](NC(=O)OCc1ccccn1)C(=O)N[C@@H](Cc1ccccc1)C[C@H](O)[C@H](Cc1ccccc1)NC(=O)[C@@H](NC(=O)OCc1ccccn1)C(C)C

>  <melting point>
220 to 222 °C

$$$$
>  <compound>
COc1nc2ccccc2nc1NC(=O)N1CCC(c2ccccc2)(c2ccccc2)CC1

>  <melting point>
202 to 204 °C

$$$$
>  <compound>
O=C(c1ccc(Cl)cc1)c1ccc(Cc2c(Cl)cc(N3N=CCNC3=O)cc2Cl)cc1

>  <melting point>
205 to 206 °C

$$$$
>  <compound>
Cc1ccc(C=CC(=O)NNC(=O)C=Cc2ccc(C)cc2)cc1

>  <melting point>
307 °C

$$$$
>  <compound>
O=C(CS)N1CCSC1COc1ccccc1O (centres undefined)

>  <melting point>
92 to 93 °C

$$$$

Req: Look up melting point: Cc1cc(CCCCCOc2c(Cl)cc(C3=NCCO3)cc2Br)on1
Resp: 41 to 42 °C

Req: Look up melting point: CCCc1c(OCCCSc2ccc(C(=O)OC)cn2)ccc(C(C)=O)c1O
Resp: 66 to 68 °C

Req: Look up melting point: O=[N+]([O-])c1ccccc1Cc1n[nH]c(Cl)n1
Resp: 160 to 163 °C

Req: Look up melting point: Cc1ccc(Oc2cnc(C#N)c(C#N)n2)cc1
Resp: 126 to 127 °C

====

Recorded melting point for the following compounds

Use the examples below as a reference point.
>  <compound>
Cc1nc2ccccn2c(=O)c1CCN1CCC(=C(c2ccc(F)cc2)c2ccc(F)cc2)CC1

>  <quantityKind>
melting point

>  <result>
109 °C

$$$$
>  <compound>
COc1ccc(CCNC(=O)COCCC(=O)NCCc2ccccc2)cc1OC

>  <quantityKind>
melting point

>  <result>
108 to 110 °C

$$$$
>  <compound>
CCOC(=O)c1c(C)ccc(Cc2c[nH]cn2)c1O

>  <quantityKind>
melting point

>  <result>
101 to 103 °C

$$$$
>  <compound>
O=c1ccn(-c2cccc(Cl)c2)nc1-c1ccnn1-c1ccccc1

>  <quantityKind>
melting point

>  <result>
146 to 147 °C

$$$$
>  <compound>
Cc1ccc(CCc2ccccc2)c(OCC[C@@H]2C[C@@H](O)CN2C)c1

>  <quantityKind>
melting point

>  <result>
97 to 100 °C

$$$$

Now turn to the next compound.
Req: Look up melting point: COC(=O)C1=C(C(=O)OC)C2(c3ccc(Cl)cc3)CCC1O2 (stereo not given)
Resp: 90 to 91 °C

====

quantityKind: melting point

>  <compound>
COCCn1c2cc(CCO)c(OC)cc2c2c3c(c(-c4ccccc4Cl)cc21)C(=O)NC3=O

>  <melting point>
271 to 273 °C

$$$$
>  <compound>
CCc1cc2c(s1)-n1c(nnc1CNC(=O)Nc1cccc(C)c1)CN=C2c1ccccc1Cl

>  <melting point>
260 to 262 °C

$$$$

Req: Look up melting point: c1ccc2c(c1)OC(c1ccc(OCCN3CCCCC3)cc1)c1c-2sc2ccccc12 (configuration not stated)
Resp: 107 °C

Req: Look up melting point: Cc1cc(Oc2cccc(C(F)(F)F)c2)nc(C(=O)O)c1
Resp: 75 to 77 °C

Req: Look up melting point: Cc1c(NN)nc(N)nc1-c1ccco1
Resp: 155 to 160 °C

Req: Look up melting point: N#Cc1cc(C=O)cnc1Cl
Resp: 96 °C

Req: Look up melting point: O=C(c1ccc(F)cc1)c1ccc(OC(F)(F)F)cc1
Resp: 42 to 43 °C

====

quantityKind: melting point

>  <compound>
CCn1c(=O)c(=O)[nH]c2cccc(C)c21

>  <quantityKind>
melting point

>  <result>
> 300 °C

$$$$
>  <compound>
NC(=O)c1cc2c(Sc3ccc(Cl)cc3)cncc2s1

>  <quantityKind>
melting point

>  <result>
239 to 241 °C

$$$$
>  <compound>
CCOC(=O)Cc1c(C)n(Cc2ccccc2)c2ccc(O)cc12

>  <quantityKind>
melting point

>  <result>
122 to 125 °C

$$$$
>  <compound>
Cc1noc(NC(=O)N2CCN(c3cc(-c4ccc(F)cc4F)ncn3)CC2)c1C

>  <quantityKind>
melting point

>  <result>
198 to 199 °C

$$$$
>  <compound>
FC(F)(F)c1nnnn1-c1ccc(OCc2ccccc2)c(Br)c1

>  <quantityKind>
melting point

>  <result>
66 to 68 °C

$$$$

Req: Look up melting point: Cc1cccc(-c2ccc3c(c2)c(C(=O)C(=O)NCC(=O)O)cn3Cc2ccc(C(C)(C)C)cc2)c1
Resp: 108 to 109 °C

Req: Look up melting point: CC#CCOc1ccc(S(=O)(=O)C(C(=O)NO)C2CCN(Cc3ccc(OC)cc3)CC2)cc1 (centres undefined)
Resp: 138 °C

Req: Look up melting point: Nc1nc2c(nc(C#Cc3ccc(C(F)(F)F)cc3)n2C2OC(CO)C(O)C2O)c(=O)[nH]1 (centres undefined)
Resp: > 240 °C

Req: Look up melting point: CCOC(=O)C1=CCCCC1S(=O)(=O)Nn1cccc1Cl (centres undefined)
Resp: 60 to 61 °C

====

quantityKind: melting point

>  <compound>
CC(=O)NC[C@H]1CN(c2cc(F)c(N3CCC(n4nnc(N5CCN(C)CC5)n4)CC3)c(F)c2)C(=O)O1

>  <melting point>
184 to 188 °C

$$$$
>  <compound>
CC1(C)Cc2cc(C3=NNC(=O)C4CC34)ccc2NC1=O (stereo unspecified)

>  <melting point>
275 to 277 °C

$$$$
>  <compound>
CNC1=NN(C(=O)c2cccc([N+](=O)[O-])c2)C(C)(C)S1

>  <melting point>
130 to 133 °C

$$$$
>  <compound>
COc1cc(CN[C@@H](CC(C)C)C(=O)N2CCN(C(c3ccc(F)cc3)c3ccc(F)cc3)CC2)cc(OC)c1OC

>  <melting point>
58 to 62 °C

$$$$
>  <compound>
CCCCCN1C(=O)C(CO)(c2ccc3c(c2)OCO3)c2ccccc21 (stereo unspecified)

>  <melting point>
110 to 113 °C

$$$$

Req: Look up melting point: O=[N+]([O-])c1nccn1CCI
Resp: 79 to 82 °C

Req: Look up melting point: O=[N+]([O-])c1ccccc1N1CCc2cc(Cl)ccc21
Resp: 85 to 89 °C

Req: Look up melting point: O=[N+]([O-])C=C1NCCN1C/C=C\Cl
Resp: 117 to 118 °C

Req: Look up melting point: COc1nc(NC(=S)NS(=O)(=O)c2ccccc2)nc(OC)n1
Resp: 148 to 150 °C

Req: Look up melting point: CCNC1CCN(c2nc(N3CCOCC3)c3ncnc(N(C)Cc4ccccc4)c3n2)CC1
Resp: 92 to 94 °C

Req: Look up melting point: NCC(O)C1=CC2(CCCCC2)c2ccccc21 (stereo unspecified)
Resp: 117 °C

====

Recorded melting point for the following molecules

Use the examples below as a reference point.
>  <molecule>
C=CCN1C2CCC3C1CCC2N3C(c1ccc(C(=O)N2CCCCC2)cc1)c1cccc(O)c1 (centres undefined)

>  <result>
70 to 73 °C

$$$$
>  <molecule>
COc1nc2cc(F)c(Cl)c(N)c2nc1OC

>  <result>
199 to 200 °C

$$$$
>  <molecule>
COC(=O)/C(=C/C=C/c1cn(C(C)=O)c2ccccc12)OC

>  <result>
107 to 108 °C

$$$$

Req: Look up melting point: Cc1nn(-c2ccccn2)c(-c2ccccc2)c1CC(=O)O
Resp: 182 to 183 °C

Req: Look up melting point: COc1cccc(OC)c1-c1cc(C(=O)O)nn1-c1ccc(C(N)=O)cc1C
Resp: 275 to 276 °C

Req: Look up melting point: O=C(NC1CCN(C(=O)OCCC2(C(=O)NCC(F)(F)F)c3ccccc3-c3ccccc32)CC1)c1ccccc1Oc1ccccc1
Resp: 68 to 73 °C

Req: Look up melting point: O=C(O)c1ccc2c(-c3ccccc3)c([N+](=O)[O-])oc2c1
Resp: 244 to 247 °C

Req: Look up melting point: O=C(CO)Nc1ccccc1-c1nnc(C(c2ccc(Cl)cc2)c2c(Cl)cc(-n3ncc(=O)[nH]c3=O)cc2Cl)o1 (centres undefined)
Resp: 235 °C

Req: Look up melting point: c1ccc(Nc2nc(N3CCN(c4ccccc4)CC3)nc3c2SCC3)cc1
Resp: 174 to 175 °C

====

quantityKind: melting point (°C)

Use the examples below as a reference point.
>  <lineNotation>
Cc1cccc(-c2[nH]c(C(C)(C)C)nc2-c2ccnc(-c3ccc(CN(C)C)cc3)c2)n1

>  <unitTag>
°C

>  <melting point>
187

$$$$
>  <lineNotation>
Cc1[nH]c2cccc(NC(=O)NCc3ccc(Br)cc3)c2c1C

>  <unitTag>
°C

>  <melting point>
190

$$$$
>  <lineNotation>
CCS(=O)(=O)Nc1c(C)cccc1C

>  <unitTag>
°C

>  <melting point>
90

$$$$

I = CCOC(=O)c1nc2scc(C(=O)O)c2c(=O)[nH]1
II = COC(=O)c1c(Cl)nc2cc3c(cc2c1CN1CCN(C)CC1)OCCO3
Req: Just tell me: smaller melting point value, I or II ? Mark your selection by writing its label.
Resp: II
(II: 143 °C, I: 258 °C)
